# experimental system: T1, anti-CD28 scFv (VH-linker 1-VL) (biotinylated (site not stated))
# T1 construct: Captured as biotinylated scFv on neutravidin coated plates in the phage ELISA
# T1 sequence (scFv, as listed by the source): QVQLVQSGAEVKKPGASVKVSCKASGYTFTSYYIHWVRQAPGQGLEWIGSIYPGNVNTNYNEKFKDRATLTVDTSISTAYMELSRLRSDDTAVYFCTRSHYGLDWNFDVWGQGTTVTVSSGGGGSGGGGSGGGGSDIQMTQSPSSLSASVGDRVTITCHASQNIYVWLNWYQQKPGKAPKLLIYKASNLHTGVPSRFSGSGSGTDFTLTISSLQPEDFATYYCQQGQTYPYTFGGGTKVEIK
# experimental details: phage ELISA; scFv wells pre-incubated with soluble CD28 (competitor);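 note: crude clonal phage supernatants added to wells pretreated with soluble CD28 in blocking buffer, bound phage read via HRP-linked anti-M13 antibody, reference wells got blocking buffer only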
Respond with true (1) for CD28 scFv signal in presence of CD28 values of 0.3 and above, false (0) for values below.

[[record]]
binder = "MDWCPRALWFECFF (on phage (pIII fusion)) [Phage-234 clonal phage peptide]"
group_label = "true (1)"

[[record]]
binder = "MDWCPRSHWSECFS (on phage (pIII fusion)) [Phage-277 clonal phage peptide]"
group_label = "false (0)"

[[record]]
binder = "MDWCPRFMWAECFN (on phage (pIII fusion)) [Phage-247 clonal phage peptide]"
group_label = "true (1)"

[[record]]
binder = "TFGCPTTMWNRCFA (on phage (pIII fusion)) [Phage-218 clonal phage peptide]"
group_label = "false (0)"

[[record]]
binder = "MDWCPKFLWDECFA (on phage (pIII fusion)) [Phage-304 clonal phage peptide]"
group_label = "true (1)"


Ask: Can MVWCMSVGWAVCLN (on phage (pIII fusion)) [Phage-272 clonal phage peptide] be said to have CD28 scFv signal in presence of CD28 at or above 0.3?
Reply: false (0)

Ask: Can MDWCPFDLWHVCYN (on phage (pIII fusion)) [Phage-256 clonal phage peptide] be said to have CD28 scFv signal in presence of CD28 at or above 0.3?
Reply: true (1)

Ask: Can MDWCPRSLWNYCFN (on phage (pIII fusion)) [Phage-313 clonal phage peptide] be said to have CD28 scFv signal in presence of CD28 at or above 0.3?
Reply: false (0)

Ask: Can MDWCPRHLWHVCFN (on phage (pIII fusion)) [Phage-264 clonal phage peptide] be said to have CD28 scFv signal in presence of CD28 at or above 0.3?
Reply: true (1)
